The measurements presented in this section are drawn from patent US8158810B2.

Biological target: hMAO-A (Homo sapiens, UniProt P21397)
Construct: purchased Sigma M7316
Experiment: MAO-A inhibition assay
Assay type: biochemical
Conditions: up to 10 μM; No = no inhibition; printed in the IC50 hMAO-A column
Procedure: MAO-A (Sigma M7316) and MAO-B (Sigma M7441) inhibition assays were conducted in 96-well micro-plates according to the method described by Zhou et al. [Analytical Biochemistry 253, 169-174, 1997]. […] Enzyme activities were determined by measuring absorbance at 570 nm (SpectralMax Plate reader), absorbance of oxidized Amplex Red generated by this horseradish peroxidase-coupled reaction. […]
observable: hMAO-A inhibition up to 10 μM

These recorded examples may help you get a feel for the data.
{"smiles-text": "O=c1c(-c2ccc(O)cc2)coc2cc(OC[C@H](O)Cc3ccccc3)ccc12", "hMAO-A inhibition up to 10 μM": "26%"}
{"smiles-text": "C[C@@H](NCC(=O)COc1ccc2c(=O)c(-c3ccc(O)cc3)coc2c1)c1ccc(F)cc1", "hMAO-A inhibition up to 10 μM": "36%"}
{"smiles-text": "O=c1c(-c2ccc(O)cc2)coc2cc(OCc3noc(-c4cc(C(F)(F)F)ccc4C(F)(F)F)n3)ccc12", "hMAO-A inhibition up to 10 μM": "No"}
{"smiles-text": "O=c1c(-c2ccc(O)cc2)coc2cc(OCCc3cccc(C(F)(F)F)c3)ccc12", "hMAO-A inhibition up to 10 μM": "No"}
{"smiles-text": "C[C@H](NC(=O)COc1ccc2c(=O)c(-c3ccc(O)cc3)coc2c1)c1ccc(F)cc1", "hMAO-A inhibition up to 10 μM": "36%"}
{"smiles-text": "O=C(O)c1coc(COc2ccc3c(=O)c(-c4ccc(O)cc4)coc3c2)n1", "hMAO-A inhibition up to 10 μM": "No"}
{"smiles-text": "O=c1c(-c2ccc(O)cc2)coc2cc(OCc3ccncc3)ccc12", "hMAO-A inhibition up to 10 μM": "No"}

Shifting focus to the compound that follows.
Observed hMAO-A inhibition up to 10 μM on hMAO-A (Homo sapiens, UniProt P21397) for `O=c1c(-c2cn[nH]c2)coc2cc(OCc3noc(-c4cc(F)cc(C(F)(F)F)c4)n3)ccc12` , please.
No

----------
Target: hMAO-A (Homo sapiens)
Construct: purchased Sigma M7316
Sequence (P21397 1-527): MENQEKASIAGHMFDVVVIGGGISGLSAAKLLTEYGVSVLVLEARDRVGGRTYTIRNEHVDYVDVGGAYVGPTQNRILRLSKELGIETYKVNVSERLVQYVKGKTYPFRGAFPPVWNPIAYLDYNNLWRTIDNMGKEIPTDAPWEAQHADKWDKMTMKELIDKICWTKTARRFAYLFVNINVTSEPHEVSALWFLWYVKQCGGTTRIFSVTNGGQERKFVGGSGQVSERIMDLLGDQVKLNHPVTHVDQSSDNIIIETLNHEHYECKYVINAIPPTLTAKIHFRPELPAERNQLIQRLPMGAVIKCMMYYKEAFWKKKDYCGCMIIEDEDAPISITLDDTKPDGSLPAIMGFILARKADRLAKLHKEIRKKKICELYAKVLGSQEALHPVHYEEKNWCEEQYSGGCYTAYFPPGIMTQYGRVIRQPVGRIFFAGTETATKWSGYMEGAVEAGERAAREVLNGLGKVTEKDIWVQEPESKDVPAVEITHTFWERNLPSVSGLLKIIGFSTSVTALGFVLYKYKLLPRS
Assay: MAO-A inhibition assay
Format: biochemical
Details: up to 10 μM; No = no inhibition; printed in the IC50 hMAO-A column
observable: hMAO-A inhibition up to 10 μM

Worked examples follow.
{"molecule": "CS(=O)(=O)Nc1ccc(-c2coc3cc(OCc4noc(-c5cc(F)cc(C(F)(F)F)c5)n4)ccc3c2=O)cc1 [PT-70]", "tested-target": "hMAO-A (Homo sapiens)", "hMAO-A inhibition up to 10 μM": "No"}
{"molecule": "Cc1nc(-c2ccc(C(F)(F)F)cc2)sc1COc1ccc2c(=O)c(-c3ccc(NS(C)(=O)=O)cc3)coc2c1 [PT-66]", "tested-target": "hMAO-A (Homo sapiens)", "hMAO-A inhibition up to 10 μM": "No"}
{"molecule": "CS(=O)(=O)Nc1ccc(-c2c(O)oc3cc(OCc4cccc(C(=O)O)c4)ccc3c2=O)cc1 [PT-111]", "tested-target": "hMAO-A (Homo sapiens)", "hMAO-A inhibition up to 10 μM": "No"}
{"molecule": "O=c1c(-c2ccc(O)cc2)coc2cc(OCCc3ccccc3)ccc12 [PT-87]", "tested-target": "hMAO-A (Homo sapiens)", "hMAO-A inhibition up to 10 μM": "No"}
{"molecule": "O=c1c(-c2ccc(O)cc2)coc2cc(OCc3cc(-c4cccc(C(F)(F)F)c4)on3)ccc12 [PT-45]", "tested-target": "hMAO-A (Homo sapiens)", "hMAO-A inhibition up to 10 μM": "No"}

Param item = N#Cc1cccc(COc2ccc3c(=O)c(-c4ccc(O)cc4)coc3c2)c1 [PT-25] ; retrieve measured hMAO-A inhibition up to 10 μM.
No

Please give the measured hMAO-A inhibition up to 10 μM for this molecule: CCOC(=O)c1cnn(CCOc2ccc3c(=O)c(-c4ccc(O)cc4)coc3c2)c1 [PT-122]
No

I'd like to know its hMAO-A inhibition up to 10 μM. The molecule in question is O=c1c(-c2ccc(O)cc2)coc2cc(OCc3ccccn3)ccc12 [PT-91]
No
